Values from patent US20230416225A1

# EXPERIMENTAL TARGET: Human HPK1, catalytic domain (Homo sapiens, UniProt Q92918)
# Sequence (Q92918 1-346): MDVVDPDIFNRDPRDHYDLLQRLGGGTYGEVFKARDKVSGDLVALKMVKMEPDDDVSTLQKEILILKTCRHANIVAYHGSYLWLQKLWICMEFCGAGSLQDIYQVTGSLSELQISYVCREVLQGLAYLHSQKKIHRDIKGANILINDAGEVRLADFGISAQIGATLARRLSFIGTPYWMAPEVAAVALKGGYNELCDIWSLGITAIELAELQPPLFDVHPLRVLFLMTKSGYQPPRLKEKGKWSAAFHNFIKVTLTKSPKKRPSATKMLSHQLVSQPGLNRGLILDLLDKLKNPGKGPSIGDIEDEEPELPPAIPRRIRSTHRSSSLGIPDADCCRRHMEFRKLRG
Binarize IC50 at 4 nM; below is Satisfied, at or above is Not satisfied.

{"COMPOUND": "COc1cc2c(cc1Nc1ncc(C(N)=O)c(NC3CC4C5CCC(C5)C34)n1)CN(C)CC2 (centres unmarked)", "EXPERIMENTAL TARGET": "Human HPK1, catalytic domain (Homo sapiens, UniProt Q92918)", "DISCRETE LABEL": "Satisfied"}
{"COMPOUND": "N#CC1(c2ccc(Nc3ncc(C(N)=O)c(Nc4ccccc4CO)n3)cc2)CC1", "EXPERIMENTAL TARGET": "Human HPK1, catalytic domain (Homo sapiens, UniProt Q92918)", "DISCRETE LABEL": "Not satisfied"}
{"COMPOUND": "COc1cc2c(cc1Nc1ncc(C(N)=O)c(NC3CCN(C4CC4)C3)n1)CN(C)CC2 (centres unmarked)", "EXPERIMENTAL TARGET": "Human HPK1, catalytic domain (Homo sapiens, UniProt Q92918)", "DISCRETE LABEL": "Not satisfied"}
{"COMPOUND": "NC(=O)c1cnc(Nc2cnn(CC3CC3)c2)nc1Nc1cccc2c1CCNC2", "EXPERIMENTAL TARGET": "Human HPK1, catalytic domain (Homo sapiens, UniProt Q92918)", "DISCRETE LABEL": "Satisfied"}
{"COMPOUND": "COc1cc2c(cc1Nc1ncc(C(N)=O)c(N[C@H]3CC[C@H](C)CC3)n1)CN(C)CC2", "EXPERIMENTAL TARGET": "Human HPK1, catalytic domain (Homo sapiens, UniProt Q92918)", "DISCRETE LABEL": "Satisfied"}
{"COMPOUND": "CCc1ccccc1Nc1nc(Nc2cc3c(cc2OC)CCN(C)C3)ncc1C(N)=O", "EXPERIMENTAL TARGET": "Human HPK1, catalytic domain (Homo sapiens, UniProt Q92918)", "DISCRETE LABEL": "Satisfied"}
{"COMPOUND": "COc1nn(C)cc1Nc1ncc(C(N)=O)c(Nc2cccc3c2CCNC3=O)n1", "EXPERIMENTAL TARGET": "Human HPK1, catalytic domain (Homo sapiens, UniProt Q92918)", "DISCRETE LABEL": "Satisfied"}

###

As a worked illustration, we turn to log10(IC50) data collected for Human HPK1, catalytic domain (Homo sapiens).
ASSAY READOUT: log10(IC50) (log10 of the value in nM)

{"MOLECULE": "Cc1cc(Nc2ncc(C(N)=O)c(Nc3cccc4c3CCNC4=O)n2)ccc1C1CC1", "ASSAY READOUT": "log10(IC50)", "VAL": -0.24}
{"MOLECULE": "CCC1[C@@H](C(=O)Nc2ncc(C(N)=O)c(Nc3ccccc3Br)n2)[C@@H]1c1cnn(C)c1 (some centres unmarked)", "ASSAY READOUT": "log10(IC50)", "VAL": 2.67}
{"MOLECULE": "CCc1ccc(Nc2ncc(C(N)=O)c(Nc3cccc4c3CCNC4=O)n2)cc1", "ASSAY READOUT": "log10(IC50)", "VAL": 1.08}
{"MOLECULE": "COc1cc2c(cc1Nc1ncc(C(N)=O)c(Nc3ccnn3C)n1)CN(C)CC2", "ASSAY READOUT": "log10(IC50)", "VAL": 0.96}
{"MOLECULE": "COc1cc2c(cc1Nc1ncc(C(N)=O)c(Nc3ccc(F)c(C#N)c3)n1)CN(C)CC2", "ASSAY READOUT": "log10(IC50)", "VAL": 1.18}
{"MOLECULE": "COC(=O)N1CCc2cc(OC)c(Nc3ncc(C(N)=O)c(Nc4ccccc4Br)n3)cc2C1", "ASSAY READOUT": "log10(IC50)", "VAL": 2.45}
{"MOLECULE": "COc1cc2c(cc1Nc1ncc(C(N)=O)c(NCc3ccncc3)n1)CN(C)CC2", "ASSAY READOUT": "log10(IC50)", "VAL": 2.35}
{"MOLECULE": "COc1cc2c(cc1Nc1ncc(C(N)=O)c(Nc3c(F)cccc3Br)n1)CN(C)CC2", "ASSAY READOUT": "log10(IC50)", "VAL": -0.92}

###

# EXPERIMENTAL TARGET: Human HPK1, catalytic domain (Homo sapiens)
# Sequence (Q92918 1-346): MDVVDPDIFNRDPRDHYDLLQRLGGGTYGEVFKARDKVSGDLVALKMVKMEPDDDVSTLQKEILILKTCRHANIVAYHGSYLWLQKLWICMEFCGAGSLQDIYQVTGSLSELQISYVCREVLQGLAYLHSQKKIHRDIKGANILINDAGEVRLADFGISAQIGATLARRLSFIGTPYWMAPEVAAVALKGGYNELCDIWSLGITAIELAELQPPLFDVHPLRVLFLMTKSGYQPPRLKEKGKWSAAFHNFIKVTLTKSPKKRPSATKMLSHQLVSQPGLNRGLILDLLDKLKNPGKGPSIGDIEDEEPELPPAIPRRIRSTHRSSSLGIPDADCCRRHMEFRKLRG

{"COMPOUND": "COc1cc2c(cc1Nc1ncc(C(N)=O)c(Nc3cccc4nn[nH]c34)n1)CN(C)CC2 [Example 7-5]", "IC50, nM": 0.5}
{"COMPOUND": "COc1cc2c(cc1Nc1ncc(C(N)=O)c(Nc3ccc(C)cc3Cl)n1)CN(C)CC2 [Example 4-19]", "IC50, nM": 0.38}
{"COMPOUND": "COc1ncccc1Nc1ncc(C(N)=O)c(Nc2cccc3c2CCNC3=O)n1 [Example 25-45]", "IC50, nM": 41.3}
{"COMPOUND": "COc1cc2c(cc1Nc1ncc(C(N)=O)c(Nc3ccccc3I)n1)CN(C)CC2 [Example 7-70]", "IC50, nM": 0.15}

###

# maps each entry to its pIC50
# EXPERIMENTAL TARGET: Human HPK1, catalytic domain (Homo sapiens, UniProt Q92918)
# Sequence (Q92918 1-346): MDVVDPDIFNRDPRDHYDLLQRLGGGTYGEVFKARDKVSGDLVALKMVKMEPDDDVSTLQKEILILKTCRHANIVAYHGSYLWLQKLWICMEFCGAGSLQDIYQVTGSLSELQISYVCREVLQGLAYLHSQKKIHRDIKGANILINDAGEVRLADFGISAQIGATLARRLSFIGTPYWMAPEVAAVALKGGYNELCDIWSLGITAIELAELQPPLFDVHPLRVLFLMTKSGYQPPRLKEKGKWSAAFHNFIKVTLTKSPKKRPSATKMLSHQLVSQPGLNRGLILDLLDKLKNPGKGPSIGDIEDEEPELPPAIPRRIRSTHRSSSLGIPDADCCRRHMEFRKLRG
pIC50: −log10 of the molar value.
ASSAY READOUT: pIC50

{"STRUCTURE NOTATION": "COc1cc2c(cc1Nc1ncc(C(N)=O)c(Nc3ccc(Br)cc3)n1)CN(C)CC2", "EXPERIMENTAL TARGET": "Human HPK1, catalytic domain (Homo sapiens, UniProt Q92918)", "VAL": 8.82}
{"STRUCTURE NOTATION": "COc1cc2c(cc1Nc1ncc(C(N)=O)c(N[C@H]3CCCc4cc(F)ccc43)n1)CN(C)CC2", "EXPERIMENTAL TARGET": "Human HPK1, catalytic domain (Homo sapiens, UniProt Q92918)", "VAL": 8.52}
{"STRUCTURE NOTATION": "CS(=O)(=O)Cc1ccc(Nc2ncc(C(N)=O)c(Nc3ccccc3CO)n2)cc1", "EXPERIMENTAL TARGET": "Human HPK1, catalytic domain (Homo sapiens, UniProt Q92918)", "VAL": 7.85}
{"STRUCTURE NOTATION": "C=CCCCN1CCc2cc(OC)c(Nc3ncc(C(N)=O)c(Nc4c(F)cc(Br)cc4F)n3)cc2C1", "EXPERIMENTAL TARGET": "Human HPK1, catalytic domain (Homo sapiens, UniProt Q92918)", "VAL": 7.17}
{"STRUCTURE NOTATION": "COc1cc2c(cc1Nc1ncc(C(N)=O)c(Nc3c(F)cccc3C(F)(F)F)n1)CN(CC(C)(C)O)CC2", "EXPERIMENTAL TARGET": "Human HPK1, catalytic domain (Homo sapiens, UniProt Q92918)", "VAL": 8.53}
{"STRUCTURE NOTATION": "Cc1cc(Nc2ncc(C(N)=O)c(Nc3cccc4c3CCNC4=O)n2)ccc1F", "EXPERIMENTAL TARGET": "Human HPK1, catalytic domain (Homo sapiens, UniProt Q92918)", "VAL": 9.14}
{"STRUCTURE NOTATION": "CNC(=O)c1cccc(Nc2nc(Nc3cc4c(cc3F)CCN(C)C4)ncc2C(N)=O)c1", "EXPERIMENTAL TARGET": "Human HPK1, catalytic domain (Homo sapiens, UniProt Q92918)", "VAL": 8.05}
